Ref: patent US20240182556A1

Below, each entry is listed with its recorded Kd.
- measuredOn: T1, PE9413, C-terminal biotinylated peptide mapping on Exon6 of the SCF molecule (SCF248) (C-terminal biotin)
- T1 construct: also called C-terminal biotinylated PE9413; C-ter PE9413
- T1 peptide: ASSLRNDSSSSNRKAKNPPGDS
- protocolSummary: yeast-displayed scFv, flow cytometry titration of biotinylated peptide
Your answer is read as nM, so omit the unit and give the number.

Illustrative cases are given below, each with its answer.
[[record]]
binder = "H83P scFv displayed on yeast (scFv, V domains shown, Aga2-anchored, VH-VL orientation; not shown: linker; SV5 tag) VH: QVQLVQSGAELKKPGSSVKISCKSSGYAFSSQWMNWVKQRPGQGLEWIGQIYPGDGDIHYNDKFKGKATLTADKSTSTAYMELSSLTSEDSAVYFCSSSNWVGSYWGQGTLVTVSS VL: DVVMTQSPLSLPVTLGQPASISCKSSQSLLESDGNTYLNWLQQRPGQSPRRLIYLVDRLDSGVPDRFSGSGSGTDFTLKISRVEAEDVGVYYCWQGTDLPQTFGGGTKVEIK"
measuredvalue = 4.08

[[record]]
binder = "A104P scFv displayed on yeast (scFv, V domains shown, Aga2-anchored, VH-VL orientation; not shown: linker; SV5 tag) VH: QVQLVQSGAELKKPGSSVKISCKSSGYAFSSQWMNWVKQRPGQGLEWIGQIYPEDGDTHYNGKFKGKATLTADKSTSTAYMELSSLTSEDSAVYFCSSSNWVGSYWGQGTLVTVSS VL: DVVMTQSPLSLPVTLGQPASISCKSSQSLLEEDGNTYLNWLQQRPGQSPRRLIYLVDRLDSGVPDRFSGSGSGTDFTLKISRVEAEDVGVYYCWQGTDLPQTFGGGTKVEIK"
measuredvalue = 3.64


Continue with the next binder.
State, in one line, measured Kd of D44P scFv displayed on yeast (scFv, V domains shown, Aga2-anchored, VH-VL orientation; not shown: linker; SV5 tag) VH: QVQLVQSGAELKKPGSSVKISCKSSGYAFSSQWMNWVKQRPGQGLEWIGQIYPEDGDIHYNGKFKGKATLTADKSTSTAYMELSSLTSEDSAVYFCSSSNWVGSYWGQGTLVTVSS VL: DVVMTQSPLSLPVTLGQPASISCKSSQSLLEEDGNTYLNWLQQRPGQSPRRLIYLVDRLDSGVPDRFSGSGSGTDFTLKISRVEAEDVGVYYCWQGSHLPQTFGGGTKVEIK 4.18
